system: MKL-2; assay: qHTS assay to identify novel small-molecules to repurpose for Merkel cell carcinoma treatment (AID 1296009); conditions: MCC and control cell lines, CellTiter-Glo viability, 72 h; series mostly up to 46 µM; note: nearly all actives have a fitted effect of over 60% in size
Results filed as inconclusive are left out. Activity calls are given as the source filed them. Calls come from the whole dose curve; as a rule, active = well fitted inhibition curve with a large enough effect; inconclusive = small, poorly fitted or top-dose-only effect; inactive = flat fitted curve, though single readings scatter.
Your response should consist of one outcome taken from active, inactive

-- ask Check the results log: what was the call for CC(C)CCCC(C)N (centres undefined) ?
-- reply inactive

-- ask Lookup `Cl/C(=C\n1cncn1)c1ccc(Cl)cc1Cl`
-- reply inactive

-- ask Input `CCOC(=O)c1ccc(N)cc1`
-- reply inactive

-- ask Next record, please: `O=C(CN1CCN(Cc2ccc3c(c2)OCO3)CC1)N1c2ccccc2Sc2ccccc21`
-- reply inactive

-- ask Field entry: `CCN1/C(=C/C=C/c2sc3ccccc3[n+]2CC)Sc2ccccc21`
-- reply active

-- ask Moving on to the next compound: `Cc1cc(-c2ccccc2)nnc1NCCN1CCOCC1`
-- reply inactive

-- ask Same again, this time with `CCN(CC)CCNC(=O)c1cc(Br)c(N)cc1OC`
-- reply inactive

-- ask Check `CCN(CC)CCOc1ccc2c(c1)C(=O)c1cc(OCCN(CC)CC)ccc1-2` too.
-- reply active

-- ask Please give the result for CC1CCc2c(N3CCC(O)CC3)c(F)cc3c(=O)c(C(=O)O)cn1c23 (centres undefined) too.
-- reply inactive

-- ask Then what about the compound `CCOC(=O)Nc1ccc2c(c1)N(C(=O)CCN1CCOCC1)c1ccccc1S2` ?
-- reply inactive

-- ask Continue with `NC(=O)n1c(O)c(C(=O)c2cccs2)c2cc(Cl)ccc21`
-- reply inactive

-- ask Now try `CC(C)(C)NC[C@H](O)COc1nsnc1N1CCOCC1` .
-- reply inactive

-- ask Would you kindly repeat that for `NS(=O)(=O)Cc1noc2ccccc12` ?
-- reply inactive

-- ask Next entry: `CCCCNC(=O)NS(=O)(=O)c1ccc(N)cc1`
-- reply inactive

-- ask Item: `NS(=O)(=O)c1ccc(Cl)c(S(N)(=O)=O)c1`
-- reply inactive

-- ask Here is the next compound: `CCCCCCCCCCCCCCC[C@H](O)[C@@H](N)CO`
-- reply inactive

-- ask // next record `Nc1nc(N)c(-c2ccccc2)s1`
-- reply inactive

-- ask And then `NC(=O)C1(N2CCCCC2)CCN(CCCC(=O)c2ccc(F)cc2)CC1` , what is it?
-- reply inactive

-- ask // repeat for `O=[N+]([O-])c1cccc(S(=O)(=O)NCCNS(=O)(=O)c2cccc([N+](=O)[O-])c2)c1` and report
-- reply inactive

-- ask What about this compound? `CC(C)=CCOc1ccc(/C=C/C(=O)c2ccc(OCC=C(C)C)cc2OCC(=O)O)cc1`
-- reply inactive

-- ask How about this compound: COP(=O)(OC)OC(c1ccc(Cl)cc1)P(=O)(OC)OC (centres undefined)
-- reply inactive

-- ask What do you have for C[N+]1(CC2COC(c3ccccc3)(C3CCCCC3)O2)CCCCC1 (centres undefined) ?
-- reply active

-- ask `CC1=C(C(=O)O)N2C(=O)[C@@H](NC(=O)[C@H](N)c3ccccc3)[C@H]2SC1` ?
-- reply inactive

-- ask What do you get for `CCNC(=O)NCc1cccc(Cl)c1` ?
-- reply inactive

-- ask // next record `C[C@H]1O[C@@H](O[C@H]2CC[C@@]3(C)[C@H](CC[C@@H]4[C@@H]3C[C@@H](O)[C@]3(C)[C@@H](C5=CC(=O)OC5)CC[C@]43O)C2)C[C@H](O)[C@@H]1O[C@H]1C[C@H](O)[C@H](O[C@H]2C[C@H](O)[C@H](O[C@@H]3O[C@H](CO)[C@@H](O)[C@H](O)[C@H]3O)[C@@H](C)O2)[C@@H](C)O1`
-- reply active

-- ask Next compound up: `CCCCN1C[C@H](O)[C@@H](O)[C@H](O)[C@H]1CO`
-- reply inactive

-- ask Next entry: CC(O)Cn1cnc2c1c(=O)n(C)c(=O)n2C (centres undefined)
-- reply inactive

-- ask How about this compound: CC(C)[N+](C)(C)CC(O)COc1cccc2ccccc12 (centres undefined)
-- reply inactive

-- ask Ok, now `O=C(O)CCc1nc2ccccc2[nH]1`
-- reply inactive

* * *

experiment: qHTS of pediatric cancer cell lines to identify multiple opportunities for drug repurposing: Primary screen for SK-N-MC cells (AID 1347093); conditions: SK-N-MC viability, CellTiter-Glo luminescence, 48 h; series mostly up to 46 µM
Inconclusive results are not listed. The source made the active and inactive calls. Calls follow the shape of the dose curve; as a rule, active = well fitted cell-killing curve with a large enough effect; inconclusive = small, poorly fitted or top-dose-only effect; inactive = no such curve, though single readings can be large or run the other way.
value-type: outcome

Some solved entries appear below for comparison.
| compound | outcome |
| --- | --- |
| Cc1c(-c2ccccc2)oc2c(C(=O)OCCN3CCCCC3)cccc2c1=O | inactive |
| OCCOCCN1CCN(C2=Nc3ccccc3Sc3ccccc32)CC1 | inactive |
| COP(=O)(OC)OC(c1ccc(Cl)cc1)P(=O)(OC)OC (stereo not given) | inactive |
| CC(C)Nc1cccnc1N1CCN(C(=O)c2cc3cc(NS(C)(=O)=O)ccc3[nH]2)CC1 | inactive |

Next compound, outcome to be filled in.
-- ask Please give the measured outcome for this compound: CCCCC(CC)COC(=O)c1ccc(N(C)C)cc1 (stereo not given)
-- reply inactive

* * *

test system: CP252; assay: qHTS profiling for inhibitors of Plasmodium falciparum proliferation (AID 504749); note: nearly all actives have a fitted effect of over 60% in size; conditions: P. falciparum in erythrocytes, SYBR Green DNA, 72 h; series mostly up to 28.7 µM
Records with an inconclusive call do not appear. Active and inactive are the calls of the source. The call rests on the fitted dose curve; in most records, active means well fitted inhibition curve with a large enough effect; inconclusive means small, poorly fitted or top-dose-only effect; inactive means flat fitted curve, though single readings scatter.
Pick one: active, inactive

-- ask Can you look up the reported call for `O[C@@H](c1cc(C(F)(F)F)nc2c(C(F)(F)F)cccc12)[C@H]1CCCCN1` for me?
-- reply active

-- ask Would you kindly repeat that for `O=C(O)C1(C(=O)O)CCC1.[NH2-].[NH2-].[Pt+2]` ?
-- reply inactive

-- ask Field entry: `Cc1cccc(C)c1NC(=O)CN1CCCC1`
-- reply inactive

-- ask Param item: `Cc1cc(NS(=O)(=O)c2ccc(N)cc2)nc(C)n1`
-- reply inactive

-- ask Also `COc1cc(O)c(C(=O)c2ccccc2)cc1S(=O)(=O)O` ?
-- reply inactive

-- ask Now give it for `Nc1ccc(S(=O)(=O)NCc2ccccc2)cc1` too.
-- reply inactive

-- ask Quick one: CC1(COc2ccc(CC3SC(=O)NC3=O)cc2)CCCCC1 (centres undefined)
-- reply inactive

-- ask Input `OC[C@H]1O[C@@H]2O[C@H]3[C@H](O)[C@@H](O)[C@@H](O[C@H]4[C@H](O)[C@@H](O)[C@@H](O[C@H]5[C@H](O)[C@@H](O)[C@@H](O[C@H]6[C@H](O)[C@@H](O)[C@@H](O[C@H]7[C@H](O)[C@@H](O)[C@@H](O[C@H]8[C@H](O)[C@@H](O)[C@@H](O[C@H]1[C@H](O)[C@H]2O)O[C@@H]8CO)O[C@@H]7CO)O[C@@H]6CO)O[C@@H]5CO)O[C@@H]4CO)O[C@@H]3CO`
-- reply inactive

-- ask Likewise for `CC(=O)N[C@@H](CCC(=O)O)C(=O)O` ?
-- reply inactive

-- ask Now consider `CC(=O)Nc1ccc(CC(=O)O)cc1` and answer again.
-- reply inactive

-- ask Next entry: `O=C(Nc1ccc([N+](=O)[O-])cc1)Nc1ccc([N+](=O)[O-])cc1`
-- reply inactive

-- ask Same again, this time with `O=C(NC1CCN(CCc2c[nH]c3ccccc23)CC1)c1ccccc1`
-- reply inactive

-- ask And then `Cc1cc(-c2ccccc2)nnc1NCCN1CCOCC1` , what is it?
-- reply inactive

-- ask And the next one, `COc1cc(C(=O)N2CCCCCCC2)cc(OC)c1OC` ?
-- reply inactive

-- ask One more compound: `CCOc1ccccc1OCCN[C@H](C)Cc1ccc(OC)c(S(N)(=O)=O)c1`
-- reply inactive

-- ask // next record `COc1ccc2c(c1)c1c3n2CCN(C)C3=NCC1`
-- reply inactive

-- ask Try this compound too: `CN(C)CCC[C@@]1(c2ccc(F)cc2)OCc2cc(C#N)ccc21`
-- reply inactive

-- ask For `C[N+]1(C)CCC(=C(c2ccccc2)c2ccccc2)CC1` then?
-- reply inactive

-- ask What do you get for `COc1ccccc1N1CCN(CCCCNC(=O)c2ccc(-c3ccc(C(C)=O)cc3)cc2)CC1` ?
-- reply inactive

* * *

system: CP325; assay: qHTS profiling for inhibitors of Plasmodium falciparum proliferation (AID 504749); note: nearly all actives have a fitted effect of over 60% in size; details: P. falciparum in erythrocytes, SYBR Green DNA, 72 h; series mostly up to 28.7 µM
Results filed as inconclusive are left out. Activity calls are given as the source filed them. Calls follow the shape of the dose curve; as a rule, active = well fitted inhibition curve with a large enough effect; inconclusive = small, poorly fitted or top-dose-only effect; inactive = flat fitted curve, though single readings scatter.
Write down one outcome, taken from Y for active, N for inactive

-- ask Hi, do you know how `c1ccc(CC2=NCCN2)cc1` came out in this test?
-- reply N

-- ask Same for `C#C[C@]1(O)CC[C@H]2[C@@H]3CCC4=Cc5oncc5C[C@]4(C)[C@H]3CC[C@@]21C`
-- reply N

-- ask Consider next the molecule `CN(Cc1ccc(C(C)(C)C)cc1)Cc1cccc2ccccc12` in the same way.
-- reply N

-- ask And for `O=S(=O)(O)c1ccc(O)cc1` ?
-- reply N

-- ask Same question for CCCCC(CC)COC(=O)c1ccc(N(C)C)cc1 (centres undefined) please.
-- reply N

-- ask Now the same for `Cc1ccc(S(=O)(=O)NC(=O)NC2CCCC2)cc1`
-- reply N

-- ask // query: `NS(=O)(=O)c1cc(C(=O)O)cc(N2CCCC2)c1Oc1ccccc1`
-- reply N

-- ask Now consider OC1C(O)C(O)C(O)C(O)C1O (centres undefined) and answer again.
-- reply N

-- ask Entry to check: `COc1ccc(C(=O)c2ccccc2)c(O)c1`
-- reply N

-- ask How about this molecule: `NCc1ccccc1Sc1ccccc1CO`
-- reply N

-- ask What about this molecule? CC(=O)Nc1ccc(OCC(O)CNC(C)C)cc1 (centres undefined)
-- reply N

-- ask // query: Cc1cc(C)cc(OCC2CNC(=O)O2)c1 (centres undefined)
-- reply N

-- ask Please answer likewise for `Cc1cccc(C)c1NC(=O)CN1CCCC1`
-- reply N

-- ask Could you do the same for `CCCCCCCCCCCCCC[N+](C)(C)Cc1ccccc1` , please?
-- reply Y

-- ask Would you mind doing `CCCCc1cc2ccccc2c(OCCN(C)C)n1` as well?
-- reply N

-- ask Check FC1(F)C(F)(F)C(F)(F)C2(F)C(F)(F)C(F)(F)C(F)(F)C(F)(F)C2(F)C1(F)F (centres undefined) too.
-- reply N

-- ask // query: `Nc1ccc(S(=O)(=O)NCc2ccccc2)cc1`
-- reply N

-- ask // repeat for `CCNC(=O)/C=C/c1cccc(Br)c1` and report
-- reply N

-- ask Moving on to `O=c1[nH]c(=O)n([C@H]2C[C@H](O)[C@@H](CO)O2)cc1F`
-- reply N

-- ask Another: CCc1ccc(C(=O)C(C)CN2CCCCC2)cc1 (centres undefined)
-- reply N

-- ask One more molecule: `CC(C)=CCOc1ccc(/C=C/C(=O)c2ccc(OCC=C(C)C)cc2OCC(=O)O)cc1`
-- reply N

-- ask And what about the molecule `CCc1oc2ccccc2c1C(=O)c1cc(Br)c(O)c(Br)c1` ?
-- reply N

-- ask Another molecule to look at: `CCCCN=C(N)N=C(N)N`
-- reply N

-- ask Now consider `CN(C)CCC[C@@]1(c2ccc(F)cc2)OCc2cc(C#N)ccc21` and answer again.
-- reply N

-- ask One more molecule: `CCOCCn1c(N2CCCN(C)CC2)nc2ccccc21`
-- reply N

-- ask Would you mind doing `CO[C@]12C[C@@H](COC(=O)c3cncc(Br)c3)CN(C)[C@@H]1Cc1cn(C)c3cccc2c13` as well?
-- reply N

-- ask Same question, `COc1ccc2c(c1)c1c3n2CCN(C)C3=NCC1` this time
-- reply N

-- ask Proceed to `CC(=O)Nc1ccc(OC(=O)c2ccccc2OC(C)=O)cc1`
-- reply N

-- ask Same thing, different molecule: `CCNC(=O)NCc1cccc(Cl)c1`
-- reply N

-- ask One more molecule: Cc1ccccc1OCC(O)CO (centres undefined)
-- reply N

-- ask Also need `CCCCCCCCCCCCCCCCO` , thanks.
-- reply N

-- ask Let us now turn to `CC(=O)NO`
-- reply N

-- ask Same lookup for `CC(=O)Nc1ncc([N+](=O)[O-])s1` , please.
-- reply N

-- ask What about `CN1CCN(CCC(=O)N2c3ccccc3Sc3ccc(C(F)(F)F)cc32)CC1` ?
-- reply N

-- ask Ok, now `CCCCCCCCCCCCSCCOCCO`
-- reply N

-- ask Also check `N/C(=N\N=C\c1ccc(Cl)cc1)N/N=C/c1ccc(Cl)cc1`
-- reply N

-- ask Also `CCN(CC)CCNc1ccc(CO)c2sc3ccccc3c(=O)c12` , if possible.
-- reply Y

-- ask Also `COc1ccc(CCN(C)CCCN2CCc3cc(OC)c(OC)cc3CC2=O)cc1OC` , if possible.
-- reply N

-- ask And for `COc1ccc(C(=O)c2ccccc2O)c(O)c1` ?
-- reply N

-- ask For `CC1=C(C(=O)O)N2C(=O)[C@@H](NC(=O)[C@H](N)c3ccccc3)[C@H]2SC1` then?
-- reply N

-- ask Another molecule: `O=C(Nc1ccc([N+](=O)[O-])cc1)Nc1ccc([N+](=O)[O-])cc1`
-- reply N

-- ask Same question for `Nc1ccc(S(=O)(=O)Nc2cnc3ccccc3n2)cc1` please.
-- reply N

-- ask // same read-out, input: `COc1cc(NS(=O)(=O)c2ccc(N)cc2)ncn1`
-- reply N

-- ask Next: `COc1cc(C(=O)NCc2ccc(OCCN(C)C)cc2)cc(OC)c1OC`
-- reply N

Where these numbers come from: PubChem BioAssay (NCATS)
